Experiment: Cmax in monkey at 50 mg/kg, po administered as suspension
Assay type: ADME, organism-based, Macaca mulatta
Conditions: rhesus monkey, in vivo
endpoint.name: Cmax (ng/mL)
Numbers only; they are read as ng/mL.

State its Cmax for this molecule: "Cc1cccc(F)c1N1CCC(N2Cc3ccccc3N(Cc3ccccc3C(F)(F)F)C2=O)CC1"
223

----------
Test: AUClast in fed Beagle dog at 30 mg/kg, po administered as solid
Format: ADME, organism-based, Canis lupus familiaris
Settings: in vivo
endpoint.name: AUC(0-t)
Kindly report the value followed by its unit.

Query AUC(0-t) for "Cc1cccc(F)c1N1CCC(N2Cc3ccccc3N(Cc3ccccc3C(F)(F)F)C2=O)CC1"
3500 ng·h/mL

----------
Assay: Cmax in Beagle dog at 150 mg/kg, po administered as suspension
Type: ADME, organism-based, Canis lupus familiaris
Details: in vivo
endpoint.name: Cmax (ng/mL)
Reply numerically in ng/mL, unit not repeated.

Provide measured Cmax value, entry: "COc1cccc2c1n(Cc1ccccc1C(F)(F)F)c(=O)n2C1CCN(c2c(C)cccc2C)CC1"
229

----------
Assay: Metabolic stability in human liver microsomes assessed as intrinsic clearance at 1 uM measured upto 15 mins in presence of NADPH regenerating system by LC-MS/MS analysis
Type: ADME, Microsome
Conditions: read-out: CLH
Below is a list of entries, each paired with its recorded microsomal CLint at 1 µM value.

COc1cccc(C)c1N1CCC(n2c(=O)n(Cc3ccccc3C(F)(F)F)c3c(OC)cccc32)CC1
< 10 µL/min/mg

Annotate the compound "COc1cccc2c1n(Cc1ccccc1C(F)(F)F)c(=O)n2C1CCN(c2c(C)cccc2F)CC1" with its measured microsomal CLint at 1 µM.
< 10 µL/min/mg

Using the record for "Cc1cccc(F)c1N1CCC(N2Cc3ccccc3N(Cc3ccccc3C(F)(F)F)C2=O)CC1" , state its measured microsomal CLint at 1 µM.
< 10 µL/min/mg

----------
Test: Drug metabolism in human liver microsomes assessed as reactive metabolite formation by measuring dGSH trapping at 10 uM measured after 60 mins in presence of NADPH regenerating system by LC-MS/MS analysis
Format: ADME, Microsome
Details: 1 h
Listed next: entries and their corresponding Drug metabolism.

Answered cases to consult:
COc1cccc(C)c1N1CCC(n2c(=O)n(Cc3ccccc3C(F)(F)F)c3c(OC)cccc32)CC1
< 100 pmol/mg/h
COc1cccc2c1n(Cc1ccccc1C(F)(F)F)c(=O)n2C1CCN(c2c(C)cccc2F)CC1
< 100 pmol/mg/h

Now look at this entry.
Annotate the molecule "Cc1cccc(F)c1N1CCC(N2Cc3ccccc3N(Cc3ccccc3C(F)(F)F)C2=O)CC1" with its measured Drug metabolism.
< 100 pmol/mg/h
